Tested on: 922993-354-T-J3-PDC complex spheroid viability;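 note: spheroids exposed to the agents for one week; 100% = DMSO vehicle control wells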
Assay: Anticancer human tumor 922993-354-T-J3-PDC patient-derived endometrial carcinoma cell line growth inhibition [POLQ]
Conditions: second compound 10 µM; first compound 10 µM; hits give low values
measurement-name: viability, T/C (%)
Field format: number, assumed %, no unit text.

Use these answered entries as a reference point.
COc1cccc2c1C(=O)c1c(O)c3c(c(O)c1C2=O)CC(O)(C(=O)CO)CC3OC1CC(N)C(O)C(C)O1 (stereo unspecified) + Cc1cccc(N(C)C(=O)C2C(O)CCN2c2nc(C)cc(C(F)(F)F)c2C#N)c1
11.6
COc1ccc([C@@H](O)c2cc(-c3ncnc4cc(N5CCOCC5)ccc34)c(F)cc2Cl)nn1 + Cc1cccc(N(C)C(=O)C2C(O)CCN2c2nc(C)cc(C(F)(F)F)c2C#N)c1
57.9

May I ask what viability, T/C has been recorded for COc1ccc([C@@H](O)c2cc(-c3ncnc4cc(N5CCOCC5)ccc34)c(F)cc2Cl)nn1 + Nc1ccc(C#CCN(C(=O)Cc2ncc(C(F)(F)F)cc2C(F)(F)F)c2ccc(F)cc2)nn1 ?
68.8

May I ask what viability, T/C has been recorded for CC1COCCN1c1cc(C2(O)CC3CCC(C2)O3)c2cnn(-c3ccn[nH]3)c2n1 (stereo unspecified) + Nc1ccc(C#CCN(C(=O)Cc2ncc(C(F)(F)F)cc2C(F)(F)F)c2ccc(F)cc2)nn1 ?
10.9

May I ask what viability, T/C has been recorded for CNCc1ccc(-c2[nH]c3cc(F)cc4c3c2CCNC4=O)cc1 + COC1C(OC(N)=O)C(O)C(Oc2ccc3c(O)c(NC(=O)c4ccc(O)c(CC=C(C)C)c4)c(=O)oc3c2C)OC1(C)C ?
78.8

May I ask what viability, T/C has been recorded for CC1COCCN1c1cc(-c2ccnn2C)c2ccnc(-c3ccn[nH]3)c2n1 (stereo unspecified) + Cc1cccc(N(C)C(=O)C2C(O)CCN2c2nc(C)cc(C(F)(F)F)c2C#N)c1 ?
8.57

May I ask what viability, T/C has been recorded for C#Cc1c(F)ccc2cc(O)cc(-c3ncc4c(N5CC6CCC(C5)N6)nc(OCC56CCCN5CC(F)C6)nc4c3F)c12 (stereo unspecified) + Cc1cccc(N(C)C(=O)C2C(O)CCN2c2nc(C)cc(C(F)(F)F)c2C#N)c1 ?
78.4

Values compiled from PubChem BioAssay AID1963830.
